The measured values listed here are drawn from patent US8895585B2.

# experimental_target: glutathione S-transferase (GST)-fused full-length human Syk protein (Homo sapiens)
# Construct: (GST)-fused full-length human Syk protein; GST (glutathione S-transferase); purchased Carna Biosciences
# test_details: Syk enzyme assay
# Format: biochemical
# setup_conditions: Syk enzyme assay, Test Example 1; read-out: IC50 of Syk-inhibitory activity
reported_endpoint: IC50

1) NC(=O)c1cc(F)c(N[C@@H]2CCCC[C@@H]2N)nc1Nc1cnc2cc(N3CCOCC3)ccc2c1 (relative stereo) ... < 10 nM
2) NC(=O)c1cc(F)c(NC2CCCCC2N)nc1Nc1ccc2cnn(CC(F)F)c2c1 (stereo not shown) ... < 10 nM
3) N#Cc1ccc(-c2cncc(Nc3nc(NC4CCCCC4N)c(F)cc3C(N)=O)c2)cc1 (stereo not shown) ... 10 to 50 nM
4) CC[C@H](N)C(CC(C)C)Nc1nc(Nc2ccc3ncccc3c2)c(C(N)=O)cc1F (stereo partly shown) ... 10 to 50 nM
5) CC(C)c1nn(C)c2ccc(Nc3nc(N[C@H](CC4CC4)[C@H](C)N)c(F)cc3C(N)=O)cc12 ... < 10 nM
6) CCOc1cnc2cc(Nc3nc(N[C@@H]4CCCC[C@@H]4N)c(F)cc3C(N)=O)ccc2n1 (relative stereo) ... < 10 nM
7) NC(=O)c1cc(F)c(N[C@@H]2CCCC[C@@H]2N)nc1Nc1cc(-n2nccn2)nc2[nH]ccc12 (relative stereo) ... < 10 nM

====

# Tested on: THP-1 cells
# test_details: TNFα generation assay
# Format: cell-based, human
# setup_conditions: Homo sapiens, THP-1, THP-1 cells; Table 22; read-out: IC50 in TNFα generation assay
reported_endpoint: IC50

1. Cn1c(=O)ccc2cc(Nc3nc(NC4CCCCC4N)c(F)cc3C(N)=O)cnc21 (centres unmarked) [Example 002-115] ... 130 to 200 nM
2. CCC[C@@H](Nc1nc(Nc2ccc3c(cnn3C)c2)c(C(N)=O)cc1F)[C@H](C)N [Example 006-236] ... < 65 nM
3. CCC[C@@H](Nc1nc(Nc2ccnc(-c3ccco3)c2)c(C(N)=O)cc1F)[C@H](C)N [Example 006-220] ... < 65 nM
4. CC(C)C(N)CNc1nc(Nc2ccc3ncccc3c2)c(C(N)=O)cc1F (centres unmarked) [Example 014-002] ... < 65 nM
5. Cc1ncc(Nc2nc(NC3CCCCC3N)c(F)cc2C(N)=O)cc1C1CC1 (centres unmarked) [Example 002-118] ... 130 to 200 nM
6. CC(C)C[C@H](CN)Nc1nc(Nc2ccc3cccnc3c2)c(C(N)=O)cc1F [Example 006-228] ... 130 to 200 nM
7. CC[C@H](N)[C@@H](CC)Nc1nc(Nc2ccnc(OC)c2)c(C(N)=O)cc1F [Example 006-381] ... 65 to 130 nM
8. COc1cccc(-c2cncc(Nc3nc(N[C@@H]4CCCC[C@@H]4N)c(F)cc3C(N)=O)c2)c1 (relative stereo) [Example 004-113] ... 130 to 200 nM

====

# experimental_target: glutathione S-transferase (GST)-fused full-length human Syk protein (Homo sapiens)
# Construct: (GST)-fused full-length human Syk protein; GST (glutathione S-transferase); purchased Carna Biosciences
# test_details: Syk enzyme assay
# Format: biochemical
# setup_conditions: Syk enzyme assay, Test Example 1; read-out: IC50 of Syk-inhibitory activity
pIC50: −log10 of the molar value.
pIC50 by entry:
reported_endpoint: pIC50

1) Cn1ccc2c(Nc3nc(N[C@@H]4CCCC[C@@H]4N)c(F)cc3C(N)=O)cncc21 ... > 8.00
2) CC[C@@H](Nc1nc(Nc2cnc(OC)c(-n3nccn3)c2)c(C(N)=O)cc1F)[C@H](C)N ... 6.00 to 7.00
3) C[C@@H](N)[C@@H](C)Nc1nc(Nc2ccc3ncccc3c2)c(C(N)=O)cc1F ... 7.30 to 8.00
4) NC(=O)c1cc(F)c(NCCO)nc1Nc1ccc2ncccc2c1 ... > 8.00
